- Test system: SN12C
- experiment-summary: NCI tumour cell line growth inhibition, 48 h
Active and inactive are the calls of the source. Rule as the data show it: active = GI50 up to about 1.1 µM and inactive = higher.
Listing of recorded GI50 by entry.

1. Cc1cc2c(c(C)c1O)C(C)(C)CN2C(=O)C(C)(C)C | > 100 µM (inactive)
2. O=C1c2c(Br)sc(Br)c2[C@@H](NC(=O)C(F)(F)F)C1Br (stereo partly specified) | 2.72 µM (inactive)
3. Oc1c2cc(Br)cc1CCc1cc(Br)cc(c1O)CC2 | 41.9 µM (inactive)
4. CCOC(=O)C1S/C(=N\c2ccc(Cl)c(Cl)c2)N=C1C (stereo unspecified) | 19.6 µM (inactive)
5. Cc1cc2nc3c(C#N)c(-c4ccccc4)cc(Nc4ccc(F)cc4)n3c2cc1C | 13.9 µM (inactive)

For the next question, use this compound.
Input CCN1CCC(O)(c2ccc(Oc3ccccc3)cc2)C(C(=O)c2ccc(Oc3ccccc3)cc2)C1 (stereo unspecified) . Output GI50: 15.3 µM (inactive)

---

- Test system: OVCAR-8
- experiment-summary: NCI tumour cell line growth inhibition, 48 h
The source made the active and inactive calls. Rule as the data show it: active = GI50 up to about 1.1 µM and inactive = higher.
measurement-type: GI50

These recorded examples may help you get a feel for the data.
1. O=C1C(Cl)=C(N2CCC[C@H]2CO)C(=O)c2c(O)ccc(O)c21 | 2.88 µM (inactive)
2. CCOP(=O)(OCC)OC1CC(n2cnc3c(N(CC)CC)ncnc32)OC1CO[Si](C)(C)C(C)(C)C (stereo unspecified) | 21.1 µM (inactive)
3. CCn1ncc2c1nc(-c1ccccc1)c[n+]2[O-] | 75 µM (inactive)
4. CC(=O)Oc1cc2c(=O)oc3c(OC(C)=O)c(OC(C)=O)c(OC(C)=O)c4c(=O)oc(c1OC(C)=O)c2c34 | 56.6 µM (inactive)
5. COc1cccc2c1C(=O)c1c(O)c3c(c(O)c1C2=O)C[C@@](O)(C(=O)CO)CC3OC1CC(O)C(O)C(C)O1 (stereo partly specified) | 0.256 µM (active)

For the next question, use this molecule.
Value sought: GI50, system OVCAR-8, item O=C1NC(c2cccc3ccccc23)Nc2ccc(Cl)cc21 (stereo unspecified) . Result: 0.00935 µM (active)

---

- Tested on: OVCAR-4
- experiment-summary: NCI tumour cell line growth inhibition, 48 h
Activity calls are given as the source filed them. Rule as the data show it: active = GI50 up to about 1.1 µM and inactive = higher.
Valid outcomes are listed here; reply with one: active, inactive

1) CCP(=O)(CC)C(Cl)Cl | inactive

Query: How was C/C([O-])=C(/c1nc(-c2ccc([N+](=O)[O-])o2)no1)[n+]1cc(C)ccc1C classified in this test?
Result: inactive

Query: How was [N-]=[N+]=Nc1c(C=O)c(=O)n2c3c(cccc13)CCC2 classified in this test?
Result: inactive

Query: How was CCOC(=O)C1Oc2ccc([N+](=O)[O-])c3c2C1(O)CCC3 (stereo unspecified) classified in this test?
Result: inactive

Query: How was COC(=O)c1onc(C2OC(C)(C)OC2C(O)COC(c2ccccc2)(c2ccccc2)c2ccccc2)c1C(=O)OC (stereo unspecified) classified in this test?
Result: inactive

Query: How was CCOc1cccc2ccc[n+](CC)c12 classified in this test?
Result: inactive

Query: How was O=c1[nH]c(=O)n(COCc2ccccc2)c2ccc(Br)cc12 classified in this test?
Result: inactive

---

- Test system: NCI-H23
- experiment-summary: NCI tumour cell line growth inhibition, 48 h
Activity calls are given as the source filed them. Cut-off read from the data, not from the text of the source: active = GI50 up to about 1.1 µM and inactive = higher.
measurement-type: GI50

These recorded examples may help you get a feel for the data.
1) CC(=O)Oc1cc2c(=O)oc3c(OC(C)=O)c(OC(C)=O)c(OC(C)=O)c4c(=O)oc(c1OC(C)=O)c2c34 | > 100 µM (inactive)
2) O=c1[nH]c(=O)n([C@H]2C[C@H](O)[C@@H](CO)O2)cc1Br | > 100 µM (inactive)

For the next question, use this molecule.
Input COc1ccc(/C=C(\NC(=O)c2ccccc2)c2nc3ccccc3[nH]2)cc1 . Output GI50: 19.1 µM (inactive)

---

- System: SNB-19
- experiment-summary: NCI tumour cell line growth inhibition, 48 h
Active and inactive are the calls of the source. Cut-off read from the data, not from the text of the source: active = GI50 up to about 1.1 µM and inactive = higher.
Valid outcomes are listed here; reply with one: active, inactive

1. CC(C)(C)OC(=O)[N+](=N)C(=O)C1CCC(=O)N1C(=O)OCc1ccccc1 (configuration not stated) | inactive
2. CN(C)CC1CN(C(=O)Nc2ccccc2)C(=N)O1 (configuration not stated) | inactive
3. O=S(=O)(O)C(Cc1nc2ccccc2[nH]1)S(=O)(=O)OCCC1S(=O)(=O)OCCOS1(=O)=O (configuration not stated) | inactive
4. S=P(c1ccccc1)(c1ccccc1)C1(C2(P(=S)(c3ccccc3)c3ccccc3)CC2)CC1 | inactive
5. COC(=O)C1=CS/C(=C2\S[C@@H]3[C@H](S2)[C@H]2C=C[C@@H]3C2)S1 | inactive
6. O=C(O)CSc1ncccc1[N+](=O)[O-] | inactive

Query: How was CC(=O)N1C(Nc2cnc3ccccc3c2)CCN1c1ccccc1 (configuration not stated) classified in this test?
Result: inactive

Query: How was O=C(c1ccccc1)C1C(C(=O)c2ccccc2)N1Cc1ccccc1 (configuration not stated) classified in this test?
Result: inactive

Query: How was CC(=O)c1cccc(NCn2nnc3ccccc32)c1 classified in this test?
Result: inactive

Query: How was CC(=O)OCC1OC(SC2=NC(=O)CS2)C(OC(C)=O)C(OC(C)=O)C1OC(C)=O (configuration not stated) classified in this test?
Result: inactive

Query: How was CC(O)(C(=O)N(O)c1ccc(Cl)cc1)c1ccc(Cl)cc1 (configuration not stated) classified in this test?
Result: inactive

---

- Tested on: SK-MEL-5
- experiment-summary: NCI tumour cell line growth inhibition, 48 h
The source made the active and inactive calls. Rule as the data show it: active = GI50 up to about 1.1 µM and inactive = higher.
Valid outcomes are listed here; reply with one: active, inactive

Answered cases to consult:
1. CCCCCCCCCCCCCCC(O)C[N+](C)(CCO)CCO (stereo not given) | inactive
2. CNC(=O)C1CCCN1C(=O)C(Cc1c[nH]cn1)NC(=O)C1CCC(=O)N1 (stereo not given) | inactive
3. O=C1Oc2ccc([N+](=O)[O-])cc2N/C1=C\C(=O)c1ccccc1 | inactive

Query: How was Cc1cccc2c1NC(c1c(C)[nH]c3ccccc13)C2 (stereo not given) classified in this test?
Result: inactive

Query: How was Clc1ccc(Cc2nc3cc4ccccc4cc3[nH]2)cc1Cl classified in this test?
Result: inactive

Query: How was O=C(NC/C(Cl)=C/Cl)Nc1c2ccccc2nc2ccccc12 classified in this test?
Result: inactive

---

Listing of recorded GI50 by entry.
- System: COLO 205
- experiment-summary: NCI tumour cell line growth inhibition, 48 h
Activity calls are given as the source filed them. Rule as the data show it: active = GI50 up to about 1.1 µM and inactive = higher.

These recorded examples may help you get a feel for the data.
1) c1ccc(C2SCc3nc4cc5ccccc5cc4n32)cc1 (stereo not drawn) | > 100 µM (inactive)
2) C[C@H](CCC(=O)NCCS(=O)(=O)O)[C@H]1CC[C@H]2[C@@H]3CC[C@@H]4C[C@H](O)CC[C@]4(C)[C@H]3CC[C@]12C | > 100 µM (inactive)

For the next question, use this molecule.
Input CCCCOP(C)(=O)C(NC(=O)OCC)(C(F)(F)F)C(F)(F)F (stereo not drawn) . Output GI50: > 100 µM (inactive)

---

- System: MDA-MB-435
- experiment-summary: NCI tumour cell line growth inhibition, 48 h
Active and inactive are the calls of the source. Rule as the data show it: active = GI50 up to about 1.1 µM and inactive = higher.
measurement-type: GI50

These recorded examples may help you get a feel for the data.
1. O=C(O)CC(Cc1ccccc1)C(=O)O (stereo not drawn) | > 100 µM (inactive)
2. O=C(O)c1cc2ccccc2c(/N=N/c2ccc(S(=O)(=O)Nc3nccs3)cc2)c1O | > 100 µM (inactive)
3. Cc1ccc2c(O)cc(-c3cc(C)sc3C)nc2n1 | 0.351 µM (active)
4. Cc1ccc(/C=N/NC2=NCCN2)s1 | > 100 µM (inactive)
5. O=C1NC(c2cccc3ccccc23)Nc2ccc(Cl)cc21 (stereo not drawn) | < 0.0001 µM (active)
6. COc1ccc(-c2cc3c(c4cc(OC)ccc24)C(=O)OC3=O)cc1 | 68.4 µM (inactive)
7. c1ccc(-c2sc(-c3cccs3)cc2Cc2cccs2)cc1 | > 10 µM (inactive)
8. CCOC(=O)c1c(-c2ccccc2)c(C)cn1C | > 10 µM (inactive)
9. CCCc1ccc(OCC(=O)N/N=C/c2c(-c3ccccc3)[nH]c3ccccc23)cc1 | 2.77 µM (inactive)
10. CC(=O)CC1CCC(=O)/C=C/C(=O)OC(CC(C)=O)CCC(=O)/C=C/C(=O)O1 (stereo not drawn) | 17 µM (inactive)

Input COC(=O)C1CC2(C)C=CC1N(C(=O)OCc1ccccc1)C2 (stereo not drawn) . Output GI50: 79.6 µM (inactive)

Input C[N+](C)(C)c1nc(N)nc2c1ncn2C1OC(CO)C(O)C1O (stereo not drawn) . Output GI50: > 100 µM (inactive)

Input CN1CCN(c2ccc3nc(-c4cc(O)c5c(nc(CO)n5C)c4O)[nH]c3n2)CC1 . Output GI50: 18.7 µM (inactive)
